- system tested: HLA-A*02:02
- protocol summary: IEDB peptide-MHC binding, purified MHC/competitive/radioactivity; filed as Kd, often an IC50 or EC50 that approximates it; bounds were set here for any values at or beyond the usual limits of such assays
- condition: source organism: Vaccinia virus WR
pKd: −log10 of the molar value.
# if value of pKd reaches 6, tag satisfied; if it stays below, tag not satisfied

>>> answer_label("DINVIGLIV")
"not satisfied"
>>> answer_label("TFFSYLMKDK")
"not satisfied"
>>> answer_label("IVDKFGKNHI")
"not satisfied"
>>> answer_label("MLTNAISSRV")
"satisfied"
>>> answer_label("WISDNTHIYL")
"satisfied"
>>> answer_label("KLRSSPPIPM")
"satisfied"
>>> answer_label("NIEIMDKEQL")
"not satisfied"

====

- system tested: HLA-B*08:01
- protocol summary: IEDB peptide-MHC binding, purified MHC/direct/fluorescence; filed as Kd, often an IC50 or EC50 that approximates it; bounds were set here for any values at or beyond the usual limits of such assays
- condition: source organism: Yersinia pestis Antiqua
measured parameter: Kd

>>> result("FQLYSDLAH")
"≥ 20 µM"

====

- system tested: HLA-C*05:01
- protocol summary: IEDB peptide-MHC binding, purified MHC/direct/fluorescence; filed as Kd, often an IC50 or EC50 that approximates it; bounds were set here for any values at or beyond the usual limits of such assays
- condition: source organism: Mycobacterium tuberculosis H37Rv
measured parameter: Kd (µM)

>>> quantitative_readout("AAAANTTAL")
1.68

====

Reported Kd values are given for each entry in this list.
- system tested: HLA-A*02:11
- protocol summary: IEDB peptide-MHC binding, purified MHC/direct/fluorescence; filed as Kd, often an IC50 or EC50 that approximates it; bounds were set here for any values at or beyond the usual limits of such assays
- condition: source organism: Zaire ebolavirus
measured parameter: Kd

>>> result("IFLKPDETF")
"≥ 20 µM"
>>> result("SQVRVPTVF")
"≥ 20 µM"

====

- system tested: HLA-A*69:01
- protocol summary: IEDB peptide-MHC binding, purified MHC/competitive/fluorescence; filed as Kd, often an IC50 or EC50 that approximates it; bounds were set here for any values at or beyond the usual limits of such assays
- condition: source organism: Orthomarburgvirus marburgense
measured parameter: Kd

>>> result("GIADFIIFK")
"≥ 20 µM"

====

- system tested: HLA-B*27:05
- protocol summary: IEDB peptide-MHC binding, purified MHC/direct/fluorescence; filed as Kd, often an IC50 or EC50 that approximates it; bounds were set here for any values at or beyond the usual limits of such assays
- condition: source organism: Influenza A virus (A/Puerto Rico/8/34/Mount Sinai(H1N1))
pKd: −log10 of the molar value.
measured parameter: pKd

>>> quantitative_readout("VSPLAVTWW")
6.79

====

Listed here: items and their measured Kd.
- system tested: HLA-B*57:01
- protocol summary: IEDB peptide-MHC binding, purified MHC/competitive/fluorescence; filed as Kd, often an IC50 or EC50 that approximates it; bounds were set here for any values at or beyond the usual limits of such assays
- condition: source organism: Human immunodeficiency virus 1
measured parameter: Kd (µM)

>>> quantitative_readout("KSLFNTIATLY")
0.114
>>> quantitative_readout("RSLFNTIATLY")
0.146

====

- system tested: HLA-B*40:01
- protocol summary: IEDB peptide-MHC binding, purified MHC/direct/fluorescence; filed as Kd, often an IC50 or EC50 that approximates it; bounds were set here for any values at or beyond the usual limits of such assays
- condition: source organism: Coxiella burnetii
pKd: −log10 of the molar value.
measured parameter: pKd

>>> result("VMKRNFIDF")
"≤ 4.70"

====

- system tested: HLA-A*32:01
- protocol summary: IEDB peptide-MHC binding, purified MHC/competitive/radioactivity; filed as Kd, often an IC50 or EC50 that approximates it; bounds were set here for any values at or beyond the usual limits of such assays
- condition: source organism: Mammarenavirus brazilense
pKd: −log10 of the molar value.
measured parameter: pKd

>>> result("EWIFRALKY")
"≤ 4.11"

====

- system tested: HLA-B*58:01
- protocol summary: IEDB peptide-MHC binding, purified MHC/competitive/radioactivity; filed as Kd, often an IC50 or EC50 that approximates it; bounds were set here for any values at or beyond the usual limits of such assays
- condition: source organism: Dengue virus 2 Jamaica/1409/1983
measured parameter: Kd (nM)

>>> quantitative_readout("RSWNSGHEW")
1.05

====

- system tested: HLA-B*44:02
- protocol summary: IEDB peptide-MHC binding, purified MHC/direct/fluorescence; filed as Kd, often an IC50 or EC50 that approximates it; bounds were set here for any values at or beyond the usual limits of such assays
- condition: source organism: Orthohantavirus andesense
measured parameter: Kd

>>> result("EKLKKKSAF")
"≥ 20 µM"

====

- system tested: HLA-C*04:01
- protocol summary: IEDB peptide-MHC binding, purified MHC/direct/fluorescence; filed as Kd, often an IC50 or EC50 that approximates it; bounds were set here for any values at or beyond the usual limits of such assays
- condition: source organism: Japanese encephalitis virus
pKd: −log10 of the molar value.
measured parameter: pKd

>>> result("QTDNQLAVF")
"≤ 4.70"

====

- system tested: HLA-B*45:01
- protocol summary: IEDB peptide-MHC binding, purified MHC/competitive/radioactivity; filed as Kd, often an IC50 or EC50 that approximates it; bounds were set here for any values at or beyond the usual limits of such assays
- condition: source organism: Lymphocytic choriomeningitis virus (strain Armstrong)
measured parameter: Kd (µM)

>>> quantitative_readout("REAVESCPLM")
8.14
>>> quantitative_readout("LDVLCLSSL")
8.17

====

- system tested: HLA-A*02:06
- protocol summary: IEDB peptide-MHC binding, purified MHC/competitive/fluorescence; filed as Kd, often an IC50 or EC50 that approximates it; bounds were set here for any values at or beyond the usual limits of such assays
- condition: source organism: Mycobacterium tuberculosis variant bovis BCG str. Pasteur 1173P2
measured parameter: Kd (nM)

>>> quantitative_readout("AVFDSFVER")
2.3

====

- system tested: HLA-A*26:01
- protocol summary: IEDB peptide-MHC binding, purified MHC/direct/fluorescence; filed as Kd, often an IC50 or EC50 that approximates it; bounds were set here for any values at or beyond the usual limits of such assays
- condition: source organism: Brucella melitensis bv. 1 str. 16M
pKd: −log10 of the molar value.
measured parameter: pKd

>>> result("TTRAVNMEV")
"≤ 4.70"

====

- system tested: HLA-A*29:02
- protocol summary: IEDB peptide-MHC binding, purified MHC/direct/fluorescence; filed as Kd, often an IC50 or EC50 that approximates it; bounds were set here for any values at or beyond the usual limits of such assays
- condition: source organism: Araucaria virus
measured parameter: Kd

>>> result("WKAIGAYIL")
"≥ 20 µM"

====

- system tested: HLA-A*11:01
- protocol summary: IEDB peptide-MHC binding, purified MHC/competitive/radioactivity; filed as Kd, often an IC50 or EC50 that approximates it; bounds were set here for any values at or beyond the usual limits of such assays
- condition: source organism: Mammarenavirus whitewaterense
pKd: −log10 of the molar value.
measured parameter: pKd

>>> result("SRIFEELVWK")
6.59
>>> result("KIGHHVELQH")
"≤ 4.16"
>>> result("SCSYKIGHH")
"≤ 4.19"
>>> result("TAIAKCNLDH")
"≤ 4.16"

====

- system tested: HLA-A*02:01
- protocol summary: IEDB peptide-MHC binding, purified MHC/direct/fluorescence; filed as Kd, often an IC50 or EC50 that approximates it; bounds were set here for any values at or beyond the usual limits of such assays
- condition: source organism: Brucella melitensis bv. 1 str. 16M
measured parameter: Kd

>>> result("TTRAVNMEV")
"≥ 20 µM"

====

- system tested: HLA-A*24:02
- protocol summary: IEDB peptide-MHC binding, purified MHC/competitive/radioactivity; filed as Kd, often an IC50 or EC50 that approximates it; bounds were set here for any values at or beyond the usual limits of such assays
- condition: source organism: Dengue virus 2 Jamaica/1409/1983
Quick reference: Kd of the listed items.
measured parameter: Kd

>>> result("HWVPTSRTTW")
"603 nM"
>>> result("WYMWLGARFL")
"6.33 nM"
>>> result("YLAGAGLLF")
"28.5 nM"
>>> result("TWAKNIQTAI")
"512 nM"

====

- system tested: HLA-B*15:01
- protocol summary: IEDB peptide-MHC binding, purified MHC/competitive/fluorescence; bounds were set here for any values at or beyond the usual limits of such assays
- condition: source organism: Vaccinia virus Copenhagen
pIC50: −log10 of the molar value.
measured parameter: pIC50

>>> quantitative_readout("KQDRSDGYF")
4.22

====

- system tested: HLA-A*32:01
- protocol summary: IEDB peptide-MHC binding, purified MHC/competitive/radioactivity; filed as Kd, often an IC50 or EC50 that approximates it; bounds were set here for any values at or beyond the usual limits of such assays
- condition: source organism: Dengue virus 1 Singapore/S275/1990
pKd: −log10 of the molar value.
measured parameter: pKd

>>> quantitative_readout("AGILARWGSF")
5.94
